Recorded values, source the supplement of paper PMC10567573.

B1: FAM46C (parent)
chain: VRSRLEEAGIKVHDVRLNGSAAGH

# Variants of: B1
# experiment_description: protein stability index of a GFP-peptide fusion (GPS, HEK-293T) (PSI 1-6); higher = more stable;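 further: lentivirally expressed fusions sorted by FACS into six bins by GFP to DsRed ratio, PSI derived from sequencing read proportions per bin multiplied by bin number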
# measurement_context: c terminus: a fixed tail appended
Label scheme for protein stability index: lower than 3 is -1, 3 and above is 1.

For orientation, consider the following solved cases.
L17S: 1
E6M: -1
R4C: -1
L17P: -1
R4T: 1

Exam item: Reported protein stability index reaches at least 3 for "I10R" ?
Marked response: 1

Exam item: Reported protein stability index reaches at least 3 for "I10M" ?
Marked response: 1

Exam item: Reported protein stability index reaches at least 3 for "L17R" ?
Marked response: 1

Exam item: Reported protein stability index reaches at least 3 for "A22C" ?
Marked response: -1

Exam item: Reported protein stability index reaches at least 3 for "G23N" ?
Marked response: -1

Exam item: Reported protein stability index reaches at least 3 for "L17A" ?
Marked response: 1

Exam item: Reported protein stability index reaches at least 3 for "A21G" ?
Marked response: 1

Exam item: Reported protein stability index reaches at least 3 for "G19T" ?
Marked response: -1
